assay_overview: physchem
Assay type: physicochemical
Marks after values point to notes of the source that are not given here.
Below, each entry is listed alongside its reported LogP.

compound: Cc1ccc(CCNC(=O)c2cc(C#N)ncc2Oc2cccc(C(F)(F)F)c2)c(C)c1
LogP: 4.39^[a]

compound: C#Cc1cc(C(=O)O)c(Oc2cccc(C(F)(F)F)c2)cn1
LogP: 2.39^[a]

compound: Cc1ccc(C(F)(F)CNC(=O)c2cc(Cl)ncc2Oc2cccc(Cl)c2)c(C)c1
LogP: 4.74^[a]

compound: Cc1ccc(CCNC(=O)c2cc(Cl)ncc2Oc2cccc(F)c2F)c(C)c1
LogP: 4.38^[a]

compound: Cc1ccc(CCNC(=O)c2cc(C3CCOC3)ncc2Oc2cccc(C(F)(F)F)c2)c(C)c1 (stereo not shown)
LogP: 4.30^[a]

compound: Cc1ccc(CCNC(=O)c2cc(Cl)ncc2Oc2ccc(C(F)(F)F)c(Cl)c2)c(C)c1
LogP: 4.48^[a]

compound: Cc1ccc(C(F)(F)CNC(=O)c2c(Oc3cccc(C(F)(F)F)c3)cnc(N3CCCC3)c2I)c(C)c1
LogP: 5.57^[a]

compound: O=C(NCC(F)c1ccc(Cl)cc1Cl)c1cc(C2CC2)ncc1Oc1cccc(C2CC2)c1F (racemic)
LogP: 5.32^[a]

compound: Cc1ccc(C(F)(F)CNC(=O)c2cc(Cl)ncc2Oc2cccc(C(F)(F)F)c2)c(C)c1
LogP: 4.77^[a]

compound: COc1cccc(Oc2cnc(Cl)cc2C(=O)NCCc2ccc(C)cc2C)c1
LogP: 4.42^[a]

compound: C#Cc1cc(C(=O)NCC(F)c2ccc(Cl)cc2Cl)c(Oc2cccc(C(F)(F)F)c2)cn1 (racemic)
LogP: 4.41^[a]

compound: O=C(NCCc1ncc(Cl)cn1)c1cc(Cl)ncc1Oc1cccc(C(F)(F)F)c1
LogP: 3.34^[a]

compound: O=C(NCC(F)c1ccc(Cl)cc1Cl)c1cc(Cl)ncc1Oc1cccc(C2CC2)c1 (racemic)
LogP: 4.92^[a]

compound: Cc1cc(Br)ccc1C(F)CNC(=O)c1cc(Cl)ncc1Oc1cccc(C(F)(F)F)c1 (racemic)
LogP: 4.93^[a]

compound: CO/N=C(\C)c1cc(C(=O)NCCc2ccc(C)cc2C)c(Oc2cccc(C(F)(F)F)c2)cn1
LogP: 5.36^[a]

compound: Cc1ccc(CCNC(=O)c2cc(Cl)ncc2Oc2cccc(OC(F)(F)F)c2)c(C)c1
LogP: 4.97^[a]
